target: recombinant BACE1 protein (Homo sapiens (Human), UniProt P56817); assay: BACE1 biochemical FRET based assay; conditions: FRET, pH 5.0
Sequence (P56817 46-501): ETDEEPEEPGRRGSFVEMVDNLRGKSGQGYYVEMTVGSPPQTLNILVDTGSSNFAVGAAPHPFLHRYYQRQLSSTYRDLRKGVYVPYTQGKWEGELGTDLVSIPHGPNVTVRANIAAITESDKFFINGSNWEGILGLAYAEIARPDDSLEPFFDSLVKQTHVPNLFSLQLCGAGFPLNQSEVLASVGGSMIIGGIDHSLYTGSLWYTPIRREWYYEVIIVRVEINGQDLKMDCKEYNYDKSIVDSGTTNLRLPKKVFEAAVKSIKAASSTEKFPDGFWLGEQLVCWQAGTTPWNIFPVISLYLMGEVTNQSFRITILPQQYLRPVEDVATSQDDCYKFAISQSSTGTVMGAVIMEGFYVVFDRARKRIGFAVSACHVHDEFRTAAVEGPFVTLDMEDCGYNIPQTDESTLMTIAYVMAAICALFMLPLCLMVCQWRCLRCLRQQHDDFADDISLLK
So I've got a bunch of compounds here, and I need their IC50 values.
One number for each entry, in µM.

Recorded IC50, per entry:
NC1=N[C@](CF)(c2cc(NC(=O)c3cnc(OCC(F)F)cn3)ccc2F)[C@H]2COCC[C@H]2O1 = 0.0186
NC1=N[C@](CF)(c2cc(NC(=O)c3cnc(C(F)F)cn3)ccc2F)[C@H]2COCC[C@H]2O1 = 0.0219
C[C@@H]1C[C@H]2OC(N)=N[C@](CF)(c3cc(NC(=O)c4ncc(C(F)(F)F)cc4Cl)ccc3F)[C@H]2CO1 = 0.0282

I have 2 compounds here; please give me IC50 for each one.
1. COc1cnc(C(=O)Nc2ccc(Cl)c([C@@]3(CF)N=C(N)O[C@@H]4C[C@@H](C)OC[C@@H]43)c2)cn1
2. C[C@@H]1COC[C@H]2[C@@H]1OC(N)=N[C@]2(CF)c1cc(NC(=O)c2cnc(OCF)cn2)ccc1F

0.0112
0.026

* * *

biological target: human ether-a-go-go related gene (hERG) channel (Homo sapiens (Human)); test: hERG test; format: cell-based; details: CHO cells expressing hERG
Sequence (Q12809 whole entry): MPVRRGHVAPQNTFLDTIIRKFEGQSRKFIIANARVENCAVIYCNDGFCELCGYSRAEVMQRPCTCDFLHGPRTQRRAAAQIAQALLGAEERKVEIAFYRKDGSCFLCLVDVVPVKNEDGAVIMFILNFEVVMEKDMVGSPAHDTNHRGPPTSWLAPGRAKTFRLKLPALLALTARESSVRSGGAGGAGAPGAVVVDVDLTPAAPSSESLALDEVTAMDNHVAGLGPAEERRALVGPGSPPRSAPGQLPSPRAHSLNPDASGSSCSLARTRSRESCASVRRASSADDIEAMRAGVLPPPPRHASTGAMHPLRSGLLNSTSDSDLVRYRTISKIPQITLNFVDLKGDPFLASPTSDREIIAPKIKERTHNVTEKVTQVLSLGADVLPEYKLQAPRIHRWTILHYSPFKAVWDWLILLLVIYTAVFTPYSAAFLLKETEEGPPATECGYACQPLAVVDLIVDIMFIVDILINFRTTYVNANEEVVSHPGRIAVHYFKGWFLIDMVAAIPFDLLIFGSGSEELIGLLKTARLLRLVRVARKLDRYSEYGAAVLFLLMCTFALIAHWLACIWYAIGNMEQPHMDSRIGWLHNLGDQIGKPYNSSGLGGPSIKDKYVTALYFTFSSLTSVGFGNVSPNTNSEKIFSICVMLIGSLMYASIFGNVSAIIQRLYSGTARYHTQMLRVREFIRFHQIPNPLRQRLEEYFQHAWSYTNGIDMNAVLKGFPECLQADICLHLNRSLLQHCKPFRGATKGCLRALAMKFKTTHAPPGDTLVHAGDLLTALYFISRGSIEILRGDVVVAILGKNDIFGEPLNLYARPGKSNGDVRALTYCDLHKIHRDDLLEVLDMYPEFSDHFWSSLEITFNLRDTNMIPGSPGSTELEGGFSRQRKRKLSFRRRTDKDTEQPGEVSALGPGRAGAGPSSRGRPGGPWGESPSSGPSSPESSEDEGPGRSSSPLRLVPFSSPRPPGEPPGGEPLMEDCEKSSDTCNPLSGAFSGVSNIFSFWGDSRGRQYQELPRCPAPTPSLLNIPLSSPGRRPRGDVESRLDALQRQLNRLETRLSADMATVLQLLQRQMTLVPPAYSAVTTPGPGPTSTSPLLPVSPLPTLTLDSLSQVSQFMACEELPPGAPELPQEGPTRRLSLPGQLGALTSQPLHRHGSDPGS
measured_endpoint: hERG inhibition (%) at 3 μM
One number for each entry, in %.

Consider the following illustrative entries.
NC1=N[C@](CF)(c2cc(NC(=O)c3cnc(OCF)cn3)ccc2F)[C@H]2COCC[C@H]2O1 [Compound I-007] = 6.83
C[C@@H]1C[C@H]2OC(N)=N[C@](CF)(c3cc(NC(=O)c4cnc(OCF)cn4)ccc3Cl)[C@H]2CO1 [Compound I-065] = 37.8
C[C@@H]1C[C@H]2OC(N)=N[C@](CF)(c3cc(NC(=O)c4cnc(OCF)cn4)ccc3F)[C@H]2CO1 [Compound I-008] = 18.5

In the following, a different compound is considered.
Report hERG inhibition (%) at 3 μM for NC1=N[C@](CF)(c2cc(NC(=O)c3ccc(C(F)(F)F)cn3)ccc2F)[C@H]2COCC[C@H]2O1 [Compound I-105] tested on human ether-a-go-go related gene (hERG) channel (Homo sapiens (Human)).
40.8

* * *

target: recombinant BACE2 protein (Homo sapiens (Human), UniProt Q9Y5Z0); assay: BACE2 biochemical FRET based assay; details: pH 5.0
Sequence (Q9Y5Z0 63-518): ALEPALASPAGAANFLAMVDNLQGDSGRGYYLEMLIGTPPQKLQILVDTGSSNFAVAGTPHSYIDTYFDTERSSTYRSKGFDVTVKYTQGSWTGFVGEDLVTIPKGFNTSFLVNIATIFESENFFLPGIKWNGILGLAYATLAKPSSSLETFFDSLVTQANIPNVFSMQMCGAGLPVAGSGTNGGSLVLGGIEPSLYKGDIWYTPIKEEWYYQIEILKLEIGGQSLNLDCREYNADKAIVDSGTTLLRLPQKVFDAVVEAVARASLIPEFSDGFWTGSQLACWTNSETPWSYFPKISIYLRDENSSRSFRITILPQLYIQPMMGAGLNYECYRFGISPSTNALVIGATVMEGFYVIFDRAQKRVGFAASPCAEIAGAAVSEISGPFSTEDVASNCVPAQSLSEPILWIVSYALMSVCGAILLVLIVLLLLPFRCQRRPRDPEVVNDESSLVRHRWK
pIC50: −log10 of the molar value.
Given measured pIC50, output 1 (yes) if it is greater than or equal to 6 and 0 (no) if not.

Here are 6 compounds together with their reported answers.
Cc1cc(C(F)(F)F)cnc1C(=O)Nc1ccc(F)c([C@@]2(CF)N=C(N)O[C@@H]3CCOC[C@@H]32)c1 [Compound I-106] = 1 (yes)
C[C@@H]1C[C@H]2OC(N)=N[C@](CF)(c3cc(NC(=O)c4cnc(OC(F)F)cn4)ccc3F)[C@H]2CO1 [Compound I-089] = 1 (yes)
C[C@@H]1C[C@H]2OC(N)=N[C@](CF)(c3cc(NC(=O)c4ncc(C(F)(F)F)cc4Cl)ccc3F)[C@H]2CO1 [Compound I-101] = 1 (yes)
COc1cnc(C(=O)Nc2ccc(F)c([C@@]3(CF)N=C(N)O[C@@H]4CCOC[C@@H]43)c2)cn1 [Compound I-067] = 1 (yes)
NC1=N[C@](CF)(c2cc(NC(=O)c3cnc(OCC(F)(F)F)cn3)ccc2F)[C@H]2COCC[C@H]2O1 [Compound I-077] = 0 (no)
NC1=N[C@](CF)(c2cc(NC(=O)c3cnc(C(F)(F)F)cn3)ccc2F)[C@H]2COCC[C@H]2O1 [Compound I-107] = 0 (no)

Hi team, for CC[C@@H]1OCC[C@H]2OC(N)=N[C@](CF)(c3cc(NC(=O)c4cnc(OC(F)F)cn4)ccc3F)[C@@H]12 [Compound I-094] , is the recorded pIC50 at or above 6?
1 (yes)

Quick one: NC1=N[C@](CF)(c2cc(NC(=O)c3cnc(C(F)F)cn3)ccc2F)[C@H]2COCC[C@H]2O1 [Compound I-103]
1 (yes)

Queued: NC1=N[C@](CF)(c2cc(NC(=O)c3ncc(C(F)(F)F)cc3Cl)ccc2F)[C@H]2COCC[C@H]2O1 [Compound I-108]
1 (yes)

Then NC1=N[C@](CF)(c2cc(NC(=O)c3cnc(OC(F)F)cn3)ccc2F)[C@H]2COCC[C@H]2O1 [Compound I-076] ?
1 (yes)

Can you check NC1=N[C@](CF)(c2cc(NC(=O)c3ccc(C(F)(F)F)cn3)ccc2F)[C@H]2COCC[C@H]2O1 [Compound I-105] next?
1 (yes)

Try the compound NC1=N[C@](CF)(c2cc(NC(=O)c3cnc(OCF)cn3)ccc2F)[C@H]2COCC[C@H]2O1 [Compound I-007]
1 (yes)

Same for NC1=N[C@](CF)(c2cc(NC(=O)c3ccc(OC(F)F)cn3)ccc2F)[C@H]2COCC[C@H]2O1 [Compound I-078]
1 (yes)

* * *

molecular target: recombinant BACE1 protein (Homo sapiens (Human)); experiment: BACE1 biochemical FRET based assay; settings: BACE1 versus BACE2
Kindly state Selectivity for each of the entries shown.
Numbers only.

As a guide, the following entries are already answered.
NC1=N[C@](CF)(c2cc(NC(=O)c3cnc(C(F)F)cn3)ccc2F)[C@H]2COCC[C@H]2O1 [Compound I-103] = 14.5
NC1=N[C@](CF)(c2cc(NC(=O)c3cnc(OCF)cn3)ccc2F)[C@H]2COCC[C@H]2O1 [Compound I-007] = 40.7

For the next question, use this molecule.
If you can, please state the reported Selectivity value of C[C@@H]1C[C@H]2OC(N)=N[C@](CF)(c3cc(NC(=O)c4cnc(OCF)cn4)ccc3F)[C@H]2CO1 [Compound I-008] .
43.7

* * *

Task for the reader: assign each of the following compounds its reported IC50.
target: recombinant BACE2 protein (Homo sapiens (Human)); experiment: BACE2 biochemical FRET based assay; conditions: pH 5.0
Record the result as a number with its unit.

Sample records with IC50:
NC1=N[C@](CF)(c2cc(NC(=O)c3cnc(OCF)cn3)ccc2F)[C@H]2COC3(CC3)C[C@H]2O1 = 977 nM
CC[C@@H]1OCC[C@H]2OC(N)=N[C@](CF)(c3cc(NC(=O)c4cnc(OCF)cn4)ccc3F)[C@@H]12 = 692 nM
NC1=N[C@](CF)(c2cc(NC(=O)c3cnc(C(F)(F)F)cn3)ccc2F)[C@H]2COCC[C@H]2O1 [Compound I-102] = 977 nM

Any idea what its IC50 is? The compound is C[C@@H]1C[C@H]2OC(N)=N[C@](CF)(c3cc(NC(=O)c4cnc(OCF)cn4)cc(F)c3F)[C@H]2CO1
933 nM
